assayed-system: human CYP11B2 (Homo sapiens (Human))
Sequence (P19099 25-503): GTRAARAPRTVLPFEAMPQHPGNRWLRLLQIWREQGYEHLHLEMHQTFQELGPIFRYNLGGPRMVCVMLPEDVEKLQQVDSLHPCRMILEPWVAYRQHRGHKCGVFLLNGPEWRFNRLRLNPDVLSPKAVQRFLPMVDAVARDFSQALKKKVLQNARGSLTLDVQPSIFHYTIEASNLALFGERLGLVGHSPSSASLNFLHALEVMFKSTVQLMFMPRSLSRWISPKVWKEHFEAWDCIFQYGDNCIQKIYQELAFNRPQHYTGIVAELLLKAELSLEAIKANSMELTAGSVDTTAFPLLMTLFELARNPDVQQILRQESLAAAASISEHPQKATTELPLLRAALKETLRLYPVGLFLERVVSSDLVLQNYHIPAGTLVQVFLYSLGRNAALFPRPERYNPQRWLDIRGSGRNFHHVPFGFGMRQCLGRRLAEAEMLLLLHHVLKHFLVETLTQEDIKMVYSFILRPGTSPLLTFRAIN
test: G-402 cellular enzyme assay, human CYP11B2 (aldosterone release, HTRF)
test-context: G-402 cells expressing human CYP11B2; 1 μM Deoxycorticosterone
pEC50: −log10 of the molar value.
Lab note: compare pEC50 against 7. Equal or greater, write rule met. Smaller, write rule not met.

Below are worked cases with known answers.
compound	cat
Cn1cc(C(=O)N2CCCC(c3[nH]ncc3Oc3ccc(C#N)cc3F)C2)cn1 (racemic) [Example 89]	rule not met
Cc1cccc(Oc2c[nH]nc2-c2ccc(Cl)cc2Cl)n1 [Example 22]	rule met
COc1ccc(Oc2cn[nH]c2-c2ccc(Cl)cc2)cc1 [Example 2]	rule not met

Next compound, please.
Evaluate N#Cc1ccc(Oc2cn[nH]c2-c2cccc(OCc3cccnc3)c2)cc1 [Example 51] : pEC50 at minimum 7?
rule met
